Record form. Attribute: IC50. Fill in for each entry.
target: HCoV-OC43 Mpro (Human coronavirus OC43); assay: HCoV-OC43 Mpro enzymatic inhibition assay (fluorescence); type: biochemical
Sequence (P0C6X6 3247-3549 limits assumed): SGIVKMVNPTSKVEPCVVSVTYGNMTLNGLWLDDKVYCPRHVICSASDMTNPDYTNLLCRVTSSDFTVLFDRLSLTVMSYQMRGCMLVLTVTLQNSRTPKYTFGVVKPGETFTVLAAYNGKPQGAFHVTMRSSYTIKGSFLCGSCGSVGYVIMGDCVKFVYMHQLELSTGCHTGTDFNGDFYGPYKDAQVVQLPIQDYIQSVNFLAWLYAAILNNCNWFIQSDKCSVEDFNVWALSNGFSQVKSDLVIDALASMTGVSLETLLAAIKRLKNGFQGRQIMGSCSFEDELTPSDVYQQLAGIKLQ
Answer by giving the amount and then stating its unit.

IC50 measured on `COc1cc2cc(C(=O)N3C[C@H]4[C@@H]([C@H]3C(=O)N[C@H](C=O)C[C@@H]3CCNC3=O)C4(C)C)[nH]c2cc1OC` = 77.9 nM

Sample `CC1(C)C[C@@H](C(=O)N[C@H](C=O)C[C@@H]2CCNC2=O)N(C(=O)c2cc3cccc(Cl)c3[nH]2)C1` ; IC50 observed: 65.1 nM

Reported IC50 for `O=C[C@H](C[C@@H]1CCNC1=O)NC(=O)[C@@H]1C[C@@H](F)CN1C(=O)c1cc2ccccc2[nH]1` was 81 nM

What the record says about `O=C[C@H](C[C@@H]1CCNC1=O)NC(=O)[C@@H]1CC2(CC2)CN1C(=O)CC1CCCCC1` : IC50 is 112 nM

IC50 for `CC(C)(C)CCC(=O)N1C[C@H]2[C@@H]([C@H]1C(=O)N[C@H](C=O)C[C@@H]1CCNC1=O)C2(C)C` is 71.4 nM

The compound listed as `CC1(C)[C@@H]2[C@@H](C(=O)N[C@H](C=O)C[C@@H]3CCNC3=O)N(C(=O)c3cc4ccccc4[nH]3)C[C@@H]21` has a reported IC50 of 94.9 nM

Notebook: CC1(C)[C@@H]2[C@@H](C(=O)N[C@H](C=O)C[C@@H]3CCNC3=O)N(C(=O)CC3CCCCC3(F)F)C[C@@H]21 (stereo partly shown) , IC50 read as 65.8 nM

The recorded IC50 for entry `Cc1cc(Cl)cc2cc(C(=O)N3C[C@H]4[C@@H]([C@H]3C(=O)N[C@H](C=O)C[C@@H]3CCNC3=O)C4(C)C)[nH]c12` equals 79.8 nM

The reported IC50 of the compound `CC1(C)C[C@@H](C(=O)N[C@H](C=O)C[C@@H]2CCNC2=O)N(C(=O)c2cc3cccc(F)c3[nH]2)C1` was 145 nM

// field: IC50; key: `Cc1cccc2cc(C(=O)N3C[C@H]4[C@@H]([C@H]3C(=O)N[C@H](C=O)C[C@@H]3CCNC3=O)C4(C)C)[nH]c12` ; value = 83.2 nM

---

target: HCoV-HKU1 Mpro (Human coronavirus HKU1, UniProt P0C6X2); assay: HCoV-HKU1 Mpro enzymatic inhibition assay (fluorescence); assay type: biochemical
Sequence (P0C6X2 3335-3637 limits assumed): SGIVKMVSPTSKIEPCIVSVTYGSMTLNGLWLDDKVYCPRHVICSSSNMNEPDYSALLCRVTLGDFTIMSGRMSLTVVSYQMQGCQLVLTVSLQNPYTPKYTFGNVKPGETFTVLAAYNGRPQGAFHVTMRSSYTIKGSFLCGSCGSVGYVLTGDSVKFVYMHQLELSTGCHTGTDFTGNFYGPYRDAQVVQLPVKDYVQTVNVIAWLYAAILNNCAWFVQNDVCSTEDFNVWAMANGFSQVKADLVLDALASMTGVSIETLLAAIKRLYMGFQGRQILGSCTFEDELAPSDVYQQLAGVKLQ
test_readout: IC50 (nM)
// return numeric value only (unit: nM, not printed)

Entry CC1CCC(CC(=O)N2C[C@H]3[C@@H]([C@H]2C(=O)N[C@H](C=O)C[C@@H]2CCNC2=O)C3(C)C)CC1 (some centres unmarked) , IC50 reported as 25

Sample `O=C[C@H](C[C@@H]1CCNC1=O)NC(=O)[C@@H]1C[C@@H](C2CCCCC2)CN1C(=O)c1cc2cccc(F)c2[nH]1` ; IC50 observed: 34.9

Recorded result, `O=C[C@H](C[C@@H]1CCNC1=O)NC(=O)[C@@H]1[C@H]2CCC[C@H]2CN1C(=O)c1cc2ccccc2[nH]1` , IC50: 20.7

Item: `CC1(C)[C@@H]2[C@@H](C(=O)N[C@H](C=O)C[C@@H]3CCNC3=O)N(C(=O)c3cc4c(F)ccc(Cl)c4[nH]3)C[C@@H]21` | IC50: 23.4

molecule `CC1(C)[C@@H]2[C@@H](C(=O)N[C@H](C=O)C[C@@H]3CCNC3=O)N(C(=O)c3cc4ccccc4[nH]3)C[C@@H]21` , IC50 observed: 28.9

---

target: UniProt P0C6X6; test: HCoV-OC43 Mpro enzymatic inhibition assay (fluorescence); assay type: biochemical
Kindly state pIC50 for each of the entries shown.
# pIC50: negative log10 of molar concentration; output just the value

Sample CC1(C)[C@@H]2[C@@H](C(=O)N[C@H](C=O)C[C@@H]3CCNC3=O)N(C(=O)c3cc4cccc(F)c4[nH]3)C[C@@H]21 [Compound 6] ; pIC50 observed: 7.41

Query COc1cccc2cc(C(=O)N3C[C@H]4[C@@H]([C@H]3C(=O)N[C@H](C=O)C[C@@H]3CCNC3=O)C4(C)C)[nH]c12 [Compound 91] yields pIC50 of 6.96

pIC50 in this record for CC1(C)C[C@@H](C(=O)N[C@H](C=O)C[C@@H]2CCNC2=O)N(C(=O)c2cc3c(F)cccc3[nH]2)C1 [Compound 51] : 7.66

# pIC50 (compound: CC1(C)[C@@H]2[C@@H](C(=O)N[C@H](C=O)C[C@@H]3CCNC3=O)N(C(=O)c3cc4cc(S(C)(=O)=O)ccc4[nH]3)C[C@@H]21 [Compound 80] ) is 7.20

The compound listed as O=C[C@H](C[C@@H]1CCNC1=O)NC(=O)[C@@H]1[C@H]2C[C@H]2CN1C(=O)c1cc2ccccc2[nH]1 [Compound 130] shows pIC50 equal to 6.40

Data point: CC1(C)[C@@H]2[C@@H](C(=O)N[C@H](C=O)C[C@@H]3CCNC3=O)N(C(=O)c3cc4c(Cl)cc(Cl)cc4[nH]3)C[C@@H]21 [Compound 97] ; pIC50 = 7.14

So for Cn1c(C(=O)N2C[C@H]3[C@@H]([C@H]2C(=O)N[C@H](C=O)C[C@@H]2CCNC2=O)C3(C)C)cc2cc(Cl)ccc21 [Compound 90] , the logged pIC50 turned out to be 6.89

Entry CC1(C)[C@@H]2[C@@H](C(=O)N[C@H](C#N)C[C@@H]3CCNC3=O)N(C(=O)C3(c4ccccc4)CC3)C[C@@H]21 [Compound 135] , pIC50 reported as 5.73

Looking up O=C[C@H](C[C@@H]1CCNC1=O)NC(=O)[C@@H]1CC2(CCC2)CN1C(=O)C1(c2ccccc2)CC1 [Compound 84] , I found its pIC50 recorded as 7.39

Short answer for CC1(C)[C@@H]2[C@@H](C(=O)N[C@H](C=O)C[C@@H]3CCNC3=O)N(C(=O)c3cc4ncccc4[nH]3)C[C@@H]21 [Compound 83] : pIC50 was 7.09

// sample O=C[C@H](C[C@@H]1CCNC1=O)NC(=O)[C@@H]1[C@H]2C[C@H](F)[C@H](C2)N1C(=O)c1cc2ccccc2[nH]1 [Compound 106] , its pIC50 was 6.93

Form: compound = CC1(C)[C@@H]2[C@@H](C(=O)N[C@H](C=O)C[C@@H]3CCNC3=O)N(C(=O)C3(c4ccccc4)CC3)C[C@@H]21 [Compound 1] ; pIC50 = 7.55

Entry CC1(C)[C@@H]2[C@@H](C(=O)N[C@H](C=O)C[C@@H]3CCNC3=O)N(C(=O)c3cc4ccc(Cl)c(F)c4[nH]3)C[C@@H]21 [Compound 21] , pIC50 reported as 7.23

// recorded pIC50 for C=C1C[C@@H](C(=O)N[C@H](C=O)C[C@@H]2CCNC2=O)N(C(=O)c2cc3ccccc3[nH]2)C1 [Compound 108] : 6.71

Sample O=C[C@H](C[C@@H]1CCNC1=O)NC(=O)[C@@H]1CC2(CC2)CN1C(=O)c1cc2ccccc2[nH]1 [Compound 47] ; pIC50 observed: 7.19

Record summary for CO[C@H]1C[C@@H](C(=O)N[C@H](C=O)C[C@@H]2CCNC2=O)N(C(=O)c2cc3ccccc3[nH]2)C1 [Compound 102] : reported pIC50 = 6.85

C[C@@H](C(=O)N1C[C@H]2[C@@H]([C@H]1C(=O)N[C@H](C=O)C[C@@H]1CCNC1=O)C2(C)C)C1CCCCC1 [Compound 67] has a reported pIC50 of 7.48

---

biological target: HCoV-HKU1 Mpro (Human coronavirus HKU1, UniProt P0C6X2); assay: HCoV-HKU1 Mpro enzymatic inhibition assay (fluorescence); assay type: biochemical
Record form. Attribute: IC50. Fill in for each entry.
Hi! Could you send only the number? It should be in nM, unit omitted.

Summary for this compound, `C[C@@H](C(=O)N1C[C@H]2[C@@H]([C@H]1C(=O)N[C@H](C=O)C[C@@H]1CCNC1=O)C2(C)C)C1CCCCC1` : IC50 is 10.8

IC50 reading for `CC1(C)[C@@H]2[C@@H](C(=O)N[C@H](C=O)C[C@@H]3CCNC3=O)N(C(=O)c3cc4c(Cl)cc(Cl)cc4[nH]3)C[C@@H]21` : 27

IC50 recorded for this compound, `Cn1c(C(=O)N2C[C@H]3[C@@H]([C@H]2C(=O)N[C@H](C=O)C[C@@H]2CCNC2=O)C3(C)C)cc2c(F)cccc21` , is 94.4

---

target: HCoV-HKU1 Mpro (Human coronavirus HKU1, UniProt P0C6X2); assay: HCoV-HKU1 Mpro enzymatic inhibition assay (fluorescence); assay type: biochemical
test_readout: IC50
Answer format: number, then unit.

CC(C)c1ccc(F)c2[nH]c(C(=O)N3C[C@H]4[C@@H]([C@H]3C(=O)N[C@H](C#N)C[C@@H]3CCNC3=O)C4(C)C)cc12 [Compound 131] yielded IC50 of 1140 nM

// Cc1cc(Cl)cc2cc(C(=O)N3C[C@H]4[C@@H]([C@H]3C(=O)N[C@H](C=O)C[C@@H]3CCNC3=O)C4(C)C)[nH]c12 [Compound 69] : IC50 value = 32.6 nM

IC50 in this record for CC1(C)[C@@H]2[C@@H](C(=O)N[C@H](C=O)C[C@@H]3CCNC3=O)N(C(=O)c3cc4ccc(F)c(F)c4[nH]3)C[C@@H]21 [Compound 4] : 26.8 nM

# IC50 (compound: O=C[C@H](C[C@@H]1CCNC1=O)NC(=O)[C@@H]1CC2(CC2)CN1C(=O)CC1CCCCC1 [Compound 126] ) is 38.4 nM

Lab note: measured IC50 of C[C@@H]1C[C@@H](C(=O)N[C@H](C=O)C[C@@H]2CCNC2=O)N(C(=O)c2cc3ccccc3[nH]2)C1 [Compound 107] was 46.5 nM

So for Cc1cccc2cc(C(=O)N3C[C@H]4[C@@H]([C@H]3C(=O)N[C@H](C=O)C[C@@H]3CCNC3=O)C4(C)C)[nH]c12 [Compound 33] , the logged IC50 turned out to be 37.9 nM

compound Cc1ccc(F)c2[nH]c(C(=O)N3C[C@H]4[C@@H]([C@H]3C(=O)N[C@H](C=O)C[C@@H]3CCNC3=O)C4(C)C)cc12 [Compound 77] , IC50 observed: 45.3 nM
